The values you see were collected from patent US11485725B2.

# Tested on: DU4475
# protocol summary: In vitro cell viability assay (CellTiter-Glo, ATP levels), triple negative breast cancer cells
# Assay type: cell-based
# measurement setup: Homo sapiens, DU-4475, 168 h, read-out: DU4475 IC50
# Procedure: In Vitro Cell Viability Assay The present disclosure provides a method for inhibiting cell viability, as measured by ATP levels. […] The cells growing in an exponential growth phase were harvested and counted for plating. […] After addition of compounds, plates were incubated for 7-day. […] Luminescence was read using an EnVision® multi-label plate reader (Perkin-Elmer®), and signal intensity was calculated relative to positive and negative control wells. […]
reported metric: IC50 (µM)

item smiles | readout number
CC(C)(C)OC(=O)N1CCC(/C=C(/C(=O)N2CCC=CC2=O)c2ccccc2)CC1 | 4.14

###

# Tested on: HCT116 (colorectal cancer) cells
# protocol summary: Resazurin-based cell viability assay using colorectal cancer cells
# measurement setup: Homo sapiens, HCT-116, 72 hr incubation
pIC50: −log10 of the molar value.

item smiles | pIC50
O=C1C=CCCN1S(=O)(=O)/C=C/c1cccnc1 | 5.72
CC(C)(C)/C=C/C(=O)N1CCC=CC1=O | 5.45
C/C(=C\C1CCN(C(=O)Nc2ccc(F)cc2)CC1)C(=O)N1CCC=CC1=O | 5.37
O=C1C=CCCCN1C(=O)/C=C/c1ccc2c(n1)OCCO2 | 5.81
O=C1C=CCCN1C(=O)/C=C/C1CC1 | 4.85

###

Collected pIC50 values appear next to each entry.
# Test system: HCT116 (colorectal cancer) cells
# protocol summary: Resazurin-based cell viability assay using colorectal cancer cells
# measurement setup: Homo sapiens, HCT-116, 72 hr incubation
pIC50: −log10 of the molar value.
reported metric: pIC50

item smiles | study system | readout number
C/C(=C\C1CCN(CC2CC2)CC1)C(=O)N1CCC=CC1=O | HCT116 (colorectal cancer) cells | 5.12
COc1cnc(/C=C/C(=O)N2CCC=CC2=O)nc1 | HCT116 (colorectal cancer) cells | 5.68
O=C1C=CCCN1C(=O)/C=C/C1CCN(C2COC2)CC1 | HCT116 (colorectal cancer) cells | 5.49
CC1(/C=C/C(=O)N2CCC=CC2=O)CCN(C(=O)OC(C)(C)C)CC1 | HCT116 (colorectal cancer) cells | 5.36

###

Collected IC50 values appear next to each entry.
# Test system: HCT116 (colorectal cancer) cells
# protocol summary: Resazurin-based cell viability assay using colorectal cancer cells
# measurement setup: Homo sapiens, HCT-116, 72 hr incubation

item smiles | IC50
O=C1C=CCCCN1C(=O)/C=C/C1CCNCC1 | 0.92 µM
CC1=CCCN(C(=O)/C=C/c2cnn(C)c2)C1=O | 88.3 µM
NC(=O)N1CCC(/C=C/C(=O)N2CCC=CC2=O)CC1 | 7.38 µM
O=C1C=CCCCN1C(=O)/C=C/c1ccc2ccccc2n1 | 0.88 µM
C/C(=C\c1cnn(C)c1)C(=O)N1CCC=CC1=O | 14 µM

###

# Test system: MOLP-8
# protocol summary: In vitro cell viability assay (CellTiter-Glo, ATP levels), multiple myeloma cells
# Assay type: cell-based
# measurement setup: Homo sapiens, MOLP-8, 168 h, 7-day incubation, CellTiter-Glo, average values; read-out: MOLP-8 IC50
Class membership depends on IC50 alone; the intervals are low class = under 400 nM, middle class = from 400 nM up to 1000 nM, high class = 1000 nM and over

molecule | class assignment
O=C1C=CCCN1C(=O)/C=C/C1CCN(C2COC2)CC1 | middle class
CC(C)(C)CN1CCC(/C=C/C(=O)N2CCC=CC2=O)CC1 | low class
O=C1C=CCCN1C(=O)/C=C/C1CCOCC1 | middle class
O=C1C=CCCN1C(=O)/C=C/c1cnc2c(c1)OCCO2 | low class
C/C(=C\C1CCNCC1)C(=O)N1CCC=CC1=O [Compound 88, 2,2,2-trifluoroacetate] | high class
O=C1C=CCCN1C(=O)/C=C/c1ccnnc1 | low class
CC(C)(C)/C=C/C(=O)N1CCC=CC1=O | middle class
CC1(/C=C/C(=O)N2CCC=CC2=O)CCCCC1 | high class
C/C(=C/C1CCN(C(=O)OC(C)(C)C)CC1)C(=O)N1CCC=CC1=O | high class
O=C1C=CCCN1C(=O)/C=C/c1cnn(CC(F)(F)F)c1 | middle class
O=C1C=CCCN1C(=O)/C=C/c1ncc2c(n1)OCCO2 | high class
O=C1C=CCCN1C(=O)/C=C/C1CCN(S(=O)(=O)c2ccccc2)CC1 | middle class
O=C1C=CCCN1C(=O)/C=C/C1CCN(Cc2ccc(F)cc2)CC1 | low class
Cc1noc(/C=C/C(=O)N2CCC=CC2=O)n1 | middle class
O=C1C=CC(F)CN1C(=O)/C=C/c1ncccn1 (centres unmarked) | low class
Cn1cc(/C=C(\C(=O)N2CCC=CC2=O)c2ccccc2)cn1 | high class
O=C1C=CCCN1C(=O)/C=C/c1cnn(C2CC2)c1 | middle class
O=C1C=CCCN1C(=O)C=C(c1ccccc1)c1ccccc1 | high class
O=C1C=CCCCN1C(=O)/C=C/c1cnccn1 | middle class
